experiment: NCI Yeast Anticancer Drug Screen. Data for the bub3 strain (AID 167); settings: S. cerevisiae bub3 mutant strain, at 50.0 µM
About 79,000 compounds went through this panel and 15% of them were active in at least one assay; those are over-represented in the sample as a whole. Activity calls are given as the source filed them. No stated cut-off is given here; in the data, active means growth inhibition above about 70%; inactive means the rest. Where a SMILES comes first, the peptide text is derived from it.
The reply should name one outcome from active, inactive

CN(C)CCCNC(=O)CCNC(=O)c1cc(NC(=O)c2cc(NC(=O)c3cc(NC(=O)c4nccn4C)cn3C)cn2C)cn1C ... inactive
CCCCCCCC(C)(O)C#CC(C)(O)CCCCCCC (stereo not drawn) ... inactive
NC(Cc1cnc[nH]1)C(=O)NC(Cc1ccc(O)cc1)C(=O)O (stereo not drawn) (H-His-Tyr-OH; configuration not given here) ... inactive
C/C(=N\[N+](C)(C)C)c1ccc2ccccc2c1 ... inactive
CC1(C)O[C@@H]2[C@@H](COC(=O)c3ccccc3)C[C@@H](C#N)[C@@H]2O1 ... inactive
CC(C)CC1=[N+]=C(NC#N)N=C(CCC(=O)Nc2ccccc2[N+](=O)[O-])C1 ... inactive
CCOC(=O)N1N=NC(c2ccccc2)C1(c1ccccc1)N1CCOCC1 (stereo not drawn) ... inactive
CCCc1c(N)nc(N)nc1N ... inactive

Fill in: this test's call for CC(=O)Nc1ccc(/C=C2\CCOC2=O)cc1[N+](=O)[O-] is ___
inactive

Fill in: this test's call for CCO/C(O)=c1/s/c(=C(\C#N)c2nc3ccccc3[nH]2)n(-c2ccccc2)c1=N is ___
inactive

Fill in: this test's call for COc1ccc(-c2nc3ccccc3[nH]2)cc1 is ___
inactive

Fill in: this test's call for CCOC(=O)c1nc2ccccc2nc1NCc1ccc(Cl)cc1Cl is ___
inactive

----------
experiment: NCI Yeast Anticancer Drug Screen. Data for the mlh1 rad18 strain (AID 175); details: S. cerevisiae mlh1 rad18 strain growth inhibition; at 50.0 µM; stronger effect = higher value
The panel holds about 79,000 compounds, 15% with a hit somewhere; the sample as a whole holds those more often.
Tag: YES if measured growth inhibition is not below 10%, NO if it is.

Worked set:
COc1cc2c(c(OC)c1OC)-c1ccc(OC)c(=O)cc1[C@@H](NC(=O)c1ccccc1)CC2 ... YES
Nc1ccncc1CCc1ccccc1 ... NO
CC(=O)OC1(C(=O)O)CCCCC1 ... NO
NNc1nnc(Cl)c2c1ncn2Cc1ccccc1 ... YES
c1ccc(N=c2snc3scc(-c4ccccc4)n23)cc1 ... YES
Cc1nnc2cc1CCCCCCCCC2 ... NO
OC(c1ccccc1)(c1ccc(-c2ccccc2)cc1)c1cccc2ccccc12 (stereo not drawn) ... NO

Okay, next one:
Exam item: decide whether the reported growth inhibition for Cc1ccc(NC(=O)Oc2cccc(C(F)(F)F)c2)cc1 is at least 10%.
YES

----------
Here, each record is paired with measured growth inhibition data.
assay: NCI Yeast Anticancer Drug Screen. Data for the mlh1 rad18 strain (AID 175); conditions: S. cerevisiae mlh1 rad18 strain growth inhibition; at 50.0 µM; stronger effect = higher value
About 79,000 compounds went through this panel and 15% of them were active in at least one assay; those are over-represented in the sample as a whole.
Write down the numeric answer in % and omit the unit.

CCOC(=O)C1OC1(C)CC (centres undefined) ... -21.4

Given the molecule CCCCCCCCCCCCCCCCS(=O)(=O)N/N=C(/c1ccc(OC)c(OC)c1)N1CCCCC1 , write its reported growth inhibition.
-7

Given the molecule Cc1cc(C)c(C)c(CC(C)(COS(C)(=O)=O)COS(C)(=O)=O)c1C , write its reported growth inhibition.
28.1

Given the molecule CCOC(=O)c1cc2ccccc2nc1N , write its reported growth inhibition.
1.1
